compounds and their reported Chemical stability data, Buffer pH2
# MEASUREMENT_PROTOCOL: HTChem stab assay (chemical stability in buffer pH2, pH4 and pH7 vs DMSO reference)
# Format: physicochemical
# APPLIED_CONDITIONS: buffer pH2/DMSO; 72 h stirring at rt

| COMPOUND | Chemical stability data, Buffer pH2, % |
| --- | --- |
| CCc1nc2cc(F)ccn2c1C(=O)NCc1ccc(-c2nc3n(n2)CCC(C(F)(F)F)C3)cc1 (racemic) [Compound 7ab] | 100 |
| O=C(NCc1ccc(-c2cn3c(n2)CC(C(F)(F)F)CC3)cc1)c1c(C(F)(F)F)nc2ccccn12 (racemic) [Compound 18ab] | 98 |
| O=C(NCc1ccc(-c2cn3c(n2)CC(C(F)(F)F)CC3)nc1)c1c(C(F)(F)F)nc2ccccn12 (stereo not drawn) [Compound 36ab] | 100 |
| CCc1nc2n(c1C(=O)NCc1ccc(-c3nc4n(n3)CCC(C(F)(F)F)C4)cc1)CCCC2 (racemic) [Compound 13ab] | 100 |
| O=C(NCc1ccc(-c2nc3n(n2)CCC(C(F)(F)F)C3)cc1)c1c(C(F)F)nc2ccccn12 (racemic) [Compound 14ab] | 100 |
| CCc1nc2ncccn2c1C(=O)NCc1ccc(-c2nc3n(n2)CCC(C(F)(F)F)C3)cc1 (racemic) [Compound 17ab] | 100 |
